// data source = ChEMBL document CHEMBL1201862

target: Large T antigen (Simian virus 40, UniProt P03070); format: functional, Betapolyomavirus macacae;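 also: Confirmatory-stage PubChem screen for compounds that inhibit SV40 T antigen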
Sequence (P03070 whole entry): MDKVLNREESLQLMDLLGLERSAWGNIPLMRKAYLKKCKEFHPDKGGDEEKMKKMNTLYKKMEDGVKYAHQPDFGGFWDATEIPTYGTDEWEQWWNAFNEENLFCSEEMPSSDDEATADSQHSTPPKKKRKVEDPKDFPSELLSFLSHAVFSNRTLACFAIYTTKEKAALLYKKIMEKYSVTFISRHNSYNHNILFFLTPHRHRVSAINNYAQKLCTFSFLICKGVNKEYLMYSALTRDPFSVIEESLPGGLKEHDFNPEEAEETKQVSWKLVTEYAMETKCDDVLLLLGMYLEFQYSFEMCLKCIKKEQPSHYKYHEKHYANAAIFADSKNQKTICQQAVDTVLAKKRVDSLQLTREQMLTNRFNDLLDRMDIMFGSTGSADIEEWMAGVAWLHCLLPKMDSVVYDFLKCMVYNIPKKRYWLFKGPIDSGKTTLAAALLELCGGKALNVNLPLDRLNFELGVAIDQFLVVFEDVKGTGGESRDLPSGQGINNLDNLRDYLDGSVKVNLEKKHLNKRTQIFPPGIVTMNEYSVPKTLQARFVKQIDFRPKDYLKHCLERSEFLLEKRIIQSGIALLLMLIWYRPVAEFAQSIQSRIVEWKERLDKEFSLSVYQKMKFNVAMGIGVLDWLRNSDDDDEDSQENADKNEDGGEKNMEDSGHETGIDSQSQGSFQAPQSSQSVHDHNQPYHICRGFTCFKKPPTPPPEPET
Active and inactive are the calls of the source.
Measured Attribute: IC50

## Task Recorded IC50 for CCN(CC)c1ccc(-c2nc3cnccn3c2NC2CCCC2)cc1 , please?
## Result 21.9 µM (active)

## Task Next entry: O=C1c2c(O)cc(O)cc2O[C@H](c2ccc(O)c(O)c2)[C@H]1O [(+)-TAXIFOLIN]
## Result 32 µM (active)

## Task # iterate: Cc1ccc(SSc2cc(C)ccc2N)c(N)c1
## Result 10.8 µM (active)

## Task Try Cc1cc(N)ccc1N=Nc1c(C)n(C)n(-c2ccccc2)c1=O next.
## Result 33.9 µM (active)

---

List of EC50 values.
biological target: Zinc finger protein mex-5 (Caenorhabditis elegans, UniProt Q9XUB2); assay: MEX-5/TCR-2 RNA interaction inhibitors, dose response, biochemical, C. elegans, fluorescence polarization (AID 1960)
Sequence (Q9XUB2 whole entry): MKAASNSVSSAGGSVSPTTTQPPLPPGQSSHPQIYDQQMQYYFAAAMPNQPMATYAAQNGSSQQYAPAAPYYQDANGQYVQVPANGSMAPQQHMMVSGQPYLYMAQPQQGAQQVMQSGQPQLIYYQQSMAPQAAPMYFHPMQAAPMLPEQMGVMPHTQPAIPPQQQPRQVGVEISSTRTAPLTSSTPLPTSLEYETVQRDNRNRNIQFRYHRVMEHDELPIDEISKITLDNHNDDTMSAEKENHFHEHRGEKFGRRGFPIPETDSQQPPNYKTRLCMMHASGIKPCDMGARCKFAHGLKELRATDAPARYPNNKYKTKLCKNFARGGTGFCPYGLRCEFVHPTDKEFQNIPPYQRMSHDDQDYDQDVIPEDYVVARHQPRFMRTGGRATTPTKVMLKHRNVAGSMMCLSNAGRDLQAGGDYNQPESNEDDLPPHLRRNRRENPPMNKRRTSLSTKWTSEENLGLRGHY
Active and inactive are the calls of the source.

Some compounds with known EC50 results, for comparison:
| Compound | EC50 |
| --- | --- |
| COc1ccc(C2C(C#N)=C(N)OC3=C2C(=O)CC(C)(C)C3)c([N+](=O)[O-])c1OC (configuration not stated) | > 300 µM (not active) |
| Cc1cccc(NC2=NC(=O)CS2)c1 | > 300 µM (not active) |
| COc1ccc(S(=O)(=O)Nc2ccc(O)c(Sc3nnc[nH]3)c2)cc1 | 8.48 µM (active) |
| Nc1ccc2nc3c(O)nc(S)nc3nc2c1 | 1.67 µM (inconclusive) |
| CC1=C[C@@H]2c3cccc4[nH]cc(c34)C[C@H]2N(C)C1 | 8.67 µM (inconclusive) |

## Task Dear colleague, I am looking for the recorded EC50 of the following compound: CCCNC(=O)c1ccc2c(O)c(O)c(-c3cccc(Br)c3)nc2c1
## Result 2.73 µM (active)

## Task Field entry: CCN(C(=O)c1cc(Cl)ccc1OC)C1CCCCC1
## Result > 300 µM (not active)

## Task Another: CC(=O)C(=NNc1nc2c([nH]1)c(=O)n(C)c(=O)n2C)C(C)=O
## Result 12.7 µM (active)

## Task Next up: Cc1cc(/C=C2\C(=O)NC(=O)N(c3cccc(F)c3)C2=O)c(C)n1-c1ccc(C(=O)O)c(Cl)c1
## Result > 300 µM (not active)

## Task Same question for COc1cc(C2C(C#N)=C(N)OC3=C2C(=O)CCC3)cc2c1OCO2 (configuration not stated) please.
## Result > 300 µM (not active)

## Task Then COC(=O)c1cc(C(=O)OC)cc(-n2c(C)cc(C(=O)COC(=O)CNS(=O)(=O)c3ccc(C)cc3)c2C)c1 ?
## Result > 300 µM (not active)

## Task Next entry: CCOC(=O)C1Nc2ccc(C)cc2C2C=CCC12 (configuration not stated)
## Result > 300 µM (not active)

## Task Same again, this time with O=C(NNC(=O)c1ccc2ccccc2c1O)c1ccccc1Cl
## Result 2.31 µM (inconclusive)

## Task Proceed to C[C@@H]1O[C@@H](Oc2c(-c3cc(O)c(O)c(O)c3)oc3cc(O)cc(O)c3c2=O)[C@H](O)[C@H](O)[C@H]1O
## Result 14 µM (active)

## Task What about COc1ccc(N/C=C2/C(=O)NC(=S)N(Cc3ccccc3)C2=O)c(OC)c1 ?
## Result > 300 µM (inconclusive)

## Task Request: CC(C)c1cc(C(N)=O)c(NC(=O)c2cccc(COc3ccc(Br)cc3)c2)s1
## Result > 300 µM (not active)

## Task Lookup O=C(O)c1ccc(-n2cccc2/C=C2/NC(=O)N(c3ccccc3)C2=O)cc1
## Result 71.1 µM (active)

## Task Then this compound: O=C(O)c1ccc2c(c1)C1C=CCC1C(c1ccncc1)N2 (configuration not stated)
## Result 24.3 µM (inconclusive)

## Task Thanks! And O=S(=O)(Nc1ccc(O)c2ccccc12)c1ccc(Br)cc1 ?
## Result 22.9 µM (active)

## Task Another compound: C=CC1=C(C(=O)O)N2C(=O)[C@@H](NC(=O)/C(=N\O)c3csc(N)n3)[C@H]2SC1 (stereo in doubt)
## Result 33.3 µM (active)

## Task Same question, COc1ccc2nc3ccccc3nc2c1NC(=O)c1ccc(Cl)cc1Cl this time
## Result 3.71 µM (inconclusive)

---

Target: Replicative DNA helicase DnaB (Mycobacterium tuberculosis, UniProt P9WMR3)
Sequence (P9WMR3 whole entry): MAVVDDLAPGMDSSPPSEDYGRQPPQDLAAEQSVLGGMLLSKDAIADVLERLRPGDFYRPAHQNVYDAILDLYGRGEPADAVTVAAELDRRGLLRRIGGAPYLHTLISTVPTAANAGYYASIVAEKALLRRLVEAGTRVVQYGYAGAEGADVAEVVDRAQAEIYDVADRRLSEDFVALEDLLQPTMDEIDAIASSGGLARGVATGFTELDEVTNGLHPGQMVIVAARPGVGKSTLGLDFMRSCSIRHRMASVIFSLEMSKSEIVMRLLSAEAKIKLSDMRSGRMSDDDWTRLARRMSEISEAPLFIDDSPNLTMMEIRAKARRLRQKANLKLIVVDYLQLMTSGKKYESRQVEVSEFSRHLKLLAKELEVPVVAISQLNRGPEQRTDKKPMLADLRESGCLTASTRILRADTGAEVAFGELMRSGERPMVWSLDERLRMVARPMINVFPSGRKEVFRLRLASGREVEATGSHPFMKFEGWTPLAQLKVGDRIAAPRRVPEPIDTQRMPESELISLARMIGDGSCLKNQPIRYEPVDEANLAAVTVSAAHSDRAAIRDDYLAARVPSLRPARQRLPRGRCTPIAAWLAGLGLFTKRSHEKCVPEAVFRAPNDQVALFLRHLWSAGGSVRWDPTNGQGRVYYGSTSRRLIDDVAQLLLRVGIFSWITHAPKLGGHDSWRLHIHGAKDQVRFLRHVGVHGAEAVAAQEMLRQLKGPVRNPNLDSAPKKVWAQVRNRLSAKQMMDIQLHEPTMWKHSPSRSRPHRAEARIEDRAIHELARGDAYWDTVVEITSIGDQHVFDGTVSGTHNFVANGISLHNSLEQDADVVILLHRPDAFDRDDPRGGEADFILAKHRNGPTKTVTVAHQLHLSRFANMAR
Assay: DnaB intein splicing inhibitors, dose response, biochemical, cell-free fluorescence (AID 449749)
Format: functional
Active and inactive are the calls of the source.
Bench note: report the call from label 1 = active, label 0 = inactive

Use these answered entries as a reference point.
| Compound | Class |
| --- | --- |
| O=C1C(Cl)=C(NCCN2CCCCC2)C(=O)c2ccccc21 | label 1 |
| O=C1c2ccccc2-c2onc3ccc(Oc4ccccc4)c1c23 | label 1 |
| COc1ccc(N2CCN(C(=O)c3ccc(Oc4ccc(C(F)(F)F)cn4)cc3)CC2)cc1 | label 1 |

## Task For this compound, state the assay outcome: Cc1cc(C)cc(S(=O)(=O)c2cnc3ccccc3n2)c1
## Result label 1

---

Cytochrome P450 2D6 (Homo sapiens) AC50 data;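 also: CYP2D6 member of a cytochrome P450 panel assay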
Sequence (P10635 whole entry): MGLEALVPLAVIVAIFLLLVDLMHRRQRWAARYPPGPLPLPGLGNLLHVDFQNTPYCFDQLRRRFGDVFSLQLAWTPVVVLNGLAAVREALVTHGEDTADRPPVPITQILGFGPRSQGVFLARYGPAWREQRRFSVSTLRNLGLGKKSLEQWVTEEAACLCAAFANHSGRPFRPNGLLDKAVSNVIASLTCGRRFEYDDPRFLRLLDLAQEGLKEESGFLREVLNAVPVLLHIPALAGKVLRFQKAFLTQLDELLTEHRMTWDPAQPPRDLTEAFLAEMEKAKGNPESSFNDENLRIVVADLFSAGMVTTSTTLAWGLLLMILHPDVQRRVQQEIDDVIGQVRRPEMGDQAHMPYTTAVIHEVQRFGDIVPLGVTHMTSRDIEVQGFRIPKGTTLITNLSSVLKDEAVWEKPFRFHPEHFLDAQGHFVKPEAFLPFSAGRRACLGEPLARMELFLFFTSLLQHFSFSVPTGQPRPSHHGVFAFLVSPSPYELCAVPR

Illustrative cases are given below, each with its answer.
| Compound | AC50 |
| --- | --- |
| Cc1cnc(CNc2ncnc3ccc(-c4ccoc4)cc23)cn1 | 39.8 µM (inconclusive) |
| Cc1c(/N=C/c2ccco2)n(Cc2ccccc2)c2ccccc12 | 4.47 µM (inconclusive) |
| C#C[C@@]1(O)CC[C@@H]2[C@@H]3CCC4=C(CCC(=O)C4)[C@H]3CC[C@]21C | 15.8 µM (inconclusive) |
| CNc1nc(-c2ccccc2C)nc2ccccc12 | 31.6 µM (inconclusive) |
| CC(=O)N1c2c(cc(Br)cc2S(=O)(=O)NCC2COc3ccccc3O2)CC1C (stereo not drawn) | 17.8 µM (inconclusive) |

## Task Tell me the measured AC50 of CCOc1ccc(NCc2nnc(SCc3ccccc3Cl)n2-c2ccccc2)cc1 , please.
## Result 25.1 µM (inconclusive)

## Task Then CCS(=O)(=O)N1CCC(C(=O)NCCN2CCN(Cc3ccccc3)CC2)CC1 ?
## Result 14.1 µM (inconclusive)

## Task Same again, this time with Cc1ccc(NS(=O)(=O)c2ccccc2Cl)c2c1CC(C)(C)O2
## Result 15.8 µM (inconclusive)

## Task Cc1ccc(C)c(/C(=N\N=C(N)N)C2CC2)c1 , same question.
## Result 3.98 µM (inconclusive)

## Task Another compound: COCCNC(=O)[C@H](C)[C@H]1C[C@]1(C)[C@H](NC(=O)OCc1ccccc1)c1ccccc1
## Result 20 µM (inconclusive)

## Task Also need C=CCn1cc(Cl)c(=O)n(CC=C)c1=O , thanks.
## Result 0.562 µM (inconclusive)

## Task Next: CC(C)c1ccccc1-n1c(SCC(=O)N2CCN(c3ccccc3)CC2)nnc1-c1cccnc1
## Result 15.8 µM (inconclusive)

## Task Quick one: COc1ccc(N(CC(=O)Nc2cccc(C)c2)S(=O)(=O)c2c(C)n[nH]c2C)cc1
## Result 20 µM (inconclusive)

## Task # iterate: CCCCC1(CCCC)C(=O)N=C(Nc2cccc(C)c2)NC1=O
## Result 14.1 µM (inconclusive)

## Task What do you have for Cn1c(=O)n(C)c2cc([N+](=O)[O-])c(N3CCN(C(=O)c4ccccc4Cl)CC3)cc21 ?
## Result 0.0355 µM (inconclusive)
